# System: K562
# MEASUREMENT_DESCRIPTION: Cell cycle arrest in human K562 cells assessed as gated cell levels at G0/G1 phase at antiproliferative IC50 after 72 hrs by propidium iodide staining based flow cytometry (reference value: 44.22 to 55.41%)
# Type: functional
Answer each item with its documented Activity.
One number for each entry, in %.

// below: answered molecules
[
  {
    "SMI": "O=C1C[C@H]2O[C@H]([C@@H](Br)c3ccccc3)[C@H](O)[C@H]2O1",
    "UNIT_INFO": "%",
    "Activity": 39.78
  },
  {
    "SMI": "[N-]=[N+]=NC[C@H]1O[C@@H]2CC(=O)O[C@@H]2[C@H]1O",
    "UNIT_INFO": "%",
    "Activity": 58.67
  }
]

Parameter requested: Activity. Apply to each item below.
1. O=C1C[C@H]2O[C@H]([C@@H](O)c3ccccc3)[C@H](O)[C@H]2O1
2. O=C1C[C@H]2O[C@H]([C@H](I)c3ccccc3)[C@H](O)[C@H]2O1

output:
[44.97, 39.65]
